system: MAPKAPK2; conditions: concentration: 1 μM, replicates: in singlicate; n = 1;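 note: KINOMEscan kinase panel screen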
Record form. Attribute: %Inh. Fill in for each entry.
Reply with the number and its unit after it.

Query: Lookup: %Inh / MAPKAPK2 / CN(c1ccc(NC(=O)Nc2cc(C(F)(F)F)ccc2F)cc1)c1ccnc(Nc2ccc(S(N)(=O)=O)cc2)n1 [GW809893]
Response: 0%

Query: Quick check: %Inh on MAPKAPK2, item COc1cccc(C(=O)Nc2cccc(Oc3ccc4nc(NC(=O)C5CC5)cn4n3)c2)c1 ?
Response: 0%

Query: Fill in the recorded %Inh for this compound, with MAPKAPK2 as test system: O=C(NC1CCN(c2ccnc(Nc3ccc(F)cc3)n2)C1)c1cc2ccccc2s1 (stereo not shown) [GSK1379716]
Response: 32%

Query: Param readout= %Inh; system= MAPKAPK2; entry= Cc1cccc(Nc2nc(N[C@H]3CCNC3)ncc2C(N)=O)c1.Cl [GSK2197149] ; returns value.
Response: 0%

Query: Provide value of %Inh for this record tested with MAPKAPK2: Cn1cc(-c2ccc3c(c2)CCN3C(=O)Cc2cccc(F)c2)c2c(N)ncnc21 [GSK2603358]
Response: 31%

Query: Value wanted: %Inh (MAPKAPK2) of entry CC(=O)N1CCN(c2ccc(Nc3nccc(-c4sc(C(C)C)nc4-c4cccc(NS(=O)(=O)c5cccc(Cl)c5)c4)n3)cn2)CC1 [GSK1660437]
Response: 19%

Query: What measured %Inh is associated with Cl.Cl.NCC(NC(=O)c1cc(-c2ccccc2)c(-c2ccnc3[nH]ccc23)s1)c1ccccc1 (stereo not shown) [GSK1321561] on MAPKAPK2?
Response: 0%

Query: // map CCCCc1nn2ncccc2c1-c1ccnc(Nc2ccc(N3CCN(C)CC3)cc2)n1 [GW684941] to recorded %Inh (system: MAPKAPK2)
Response: 0%

Query: Lab note: need %Inh with MAPKAPK2 for entry c1ccc(-c2n[nH]cc2Nc2ccnc3ccccc23)nc1 [GW694077] , please look it up.
Response: 0%

Query: Form field - read-out: %Inh; system: MAPKAPK2; submitted item: C[C@@H]1CC[C@@H](C(=O)Nc2ccccc2)CN1c1cc(-c2ccc3c(N)n[nH]c3c2)nc(N)n1 [GSK2286062]
Response: 0%

###

tested on: DRAK1; construct: gene STK17A; conditions: concentration: 1 μM, replicates: in singlicate; n = 1
Give %Inh for every item shown.
# unit: % | format: bare number

Query: // returns reported %Inh for input COc1cccc(-c2ccc3c(NC(=O)C4CC4)n[nH]c3n2)c1
Response: 2

Query: Quick one: %Inh of COc1cc(Nc2nccc(N3CCC(NC(=O)c4cc5ccccc5s4)C3)n2)cc(OC)c1OC (stereo not shown) ?
Response: 0

Query: What %Inh value was documented for this compound, COc1cc(Nc2ncc3c(C)nc(-c4cc5ccccc5[nH]4)n3n2)cc(OC)c1OC ?
Response: 30

Query: Given the entry CCn1c(-c2nonc2N)nc2c(C#CC(C)(C)O)ncc(OCCCCN)c21.O=C(O)C(F)(F)F.O=C(O)C(F)(F)F , report its measured %Inh.
Response: 0

Query: Entry under review: Cc1occc1-c1ncc(OC[C@@H](N)Cc2c[nH]c3ccccc23)cc1-c1ccc2[nH]nc(C)c2c1.O=C(O)C(F)(F)F . Reported %Inh?
Response: 0

Query: Requested field: %Inh. Item: Cn1cc(-c2ccc3c(c2)CCN3C(=O)Cc2cccc(Cl)c2)c2c(N)ncnc21
Response: 0

Query: Bench note: what %Inh did CC(C)c1nc(-c2cccc(NS(=O)(=O)c3c(F)cccc3F)c2F)c(-c2ccnc(Nc3ccc(N4CCOCC4)nc3)n2)s1 show?
Response: 0

Query: For Cc1ccc(S(=O)(=O)Nc2ccc(Nc3nccc(Nc4cccc5[nH]ncc45)n3)cc2)cc1 , what is its reported %Inh?
Response: 61

Query: Any idea what %Inh was measured for Cl.NC(=O)c1cccc(Nc2nccc(Nc3ccc(Oc4c(Cl)cccc4Cl)c(Cl)c3)n2)c1 ?
Response: 0

Query: Which %Inh is reported for this compound? CC(=O)N1CCN(c2ccc(Nc3nccc(-c4sc(C(C)C)nc4-c4cccc(NS(=O)(=O)c5cccc(Cl)c5)c4)n3)cn2)CC1
Response: 0

Query: What measured %Inh goes with Oc1cc(Nc2ccnc3cc(I)ccc23)ccc1F ?
Response: 0

Query: What does the record list as %Inh for Cn1cc(-c2ccc3c(c2)CCN3C(=O)Cc2cccc(F)c2)c2c(N)ncnc21 ?
Response: 0

Query: Could you share which %Inh value was measured for COC(=O)Nc1nc2ccc(Oc3ccc(NC(=O)Nc4cc(C(F)(F)F)ccc4F)cc3)cc2n1C.Cl ?
Response: 0

Query: Endpoint output: %Inh of O=C(Nc1cccc(-c2nn3ccccc3c2-c2ccnc(Nc3cccc(F)c3)n2)c1)c1c(F)ccc(F)c1Cl . Value?
Response: 3

Query: Need %Inh of CSc1cccc2c(-c3ccncn3)c(-c3ccc(F)cc3)nn12 , thanks.
Response: 0

Query: Using the record for Clc1ccc(-c2nn3ncccc3c2-c2ccnc(Nc3ccc4c(c3)OCCO4)n2)cc1 , report its %Inh.
Response: 0
